Tested on: Fibroblast
RUN_DESCRIPTION: Incucyte cell viability with human fibroblast; also: unitless GR value; below 1 slowed growth and below 0 cell loss
Type: toxicity, cell-based
TEST_CONTEXT: 18 h, 10 µM, compound concentration 10 uM, replicate number 2, timepoint 18 hours
Provide the recorded Growth Rate for the entries that follow.

Consider the worked cases shown below.
# RECORD_SMILES, Growth Rate
data = [
    ("CC(C)Cc1ccc([C@@H](C)C(=O)NS(C)(=O)=O)cc1", 0.65),
    ("CO[C@H]1CNC[C@@H](OCC2CCC(F)(F)CC2)[C@@H]1Nc1ncc(-c2cncc(C)c2)c2cc(C)c(=O)[nH]c12", 0.64),
    ("CN(C)CCn1cc(S(=O)(=O)c2cccc(F)c2)c2cccnc21.Cl.Cl", 0.64),
]

// batch mode: one Growth Rate value per listed entry
1. Cc1nc[nH]c1CCN.Cl
2. COC(=O)[C@H](CCCNC(=N)N)NC(=O)CCCc1c(-c2ccccc2)[nH]c2c(F)cc(F)cc12.O=C(O)C(F)(F)F

[0.58, 0.38]

====

Test system: Fibroblast
RUN_DESCRIPTION: Incucyte cell viability with human fibroblast; also: unitless GR value; below 1 slowed growth and below 0 cell loss
Type: toxicity, cell-based
TEST_CONTEXT: 0 h, 10 µM, compound concentration 10 uM, replicate number 1, timepoint 0 hours
Records here are stratified by Growth Rate; strata: low (below 0.04), medium (0.04 to below 0.5), high (0.5 or more)

These solved cases illustrate the format of a correct answer.
# COMPOUND, ASSIGNED_LABEL
data = [
    ("O=C(O)C(F)(F)F.O=C1NC(=O)/C(=C/c2c[nH]c(=O)c(-c3ccc(N4CCNCC4)nc3)c2)S1", "medium"),
    ("C[C@H](NC(=O)c1c(C(F)F)nn(C)c1Oc1cccc(C(F)(F)F)c1)c1ccc(C(=O)O)cc1", "medium"),
    ("C[C@H]1CN(C[C@H](Cc2ccccc2)C(=O)NCC(=O)O)CC[C@@]1(C)c1cccc(O)c1", "medium"),
    ("O=C(O)CCc1ccc(NCc2cccc(Oc3ccccc3)c2)cc1", "low"),
    ("COc1cc(N2CCN(C)CC2)ccc1Nc1nccc(-c2cn(C)c3cnccc23)n1", "low"),
]

Note: place this compound into its band. Item: NC(N)=Nc1nc(CSCCC(N)=NS(N)(=O)=O)cs1
high

Category lookup for the compound CCNC(=O)[C@H]1O[C@@H](n2cnc3c(N)ncnc32)[C@H](O)[C@@H]1O.O
low

Band for Cc1nn(C)c2nc(NNC(=O)Nc3cc(Cl)nc(Cl)c3)cc(C(C)C)c12 ?
medium

Please report the category associated with C[C@@H]1C[C@H]2[C@@H]3CCC4=CC(=O)C=C[C@]4(C)[C@@]3(F)[C@@H](O)C[C@]2(C)[C@@]1(O)C(=O)CO , nothing else.
high

Please report the category associated with Cl.FC(F)(F)c1ccc(N2CCNCC2)nc1Cl , nothing else.
high

Dear colleague, I would appreciate it if you could identify the bin for CCCCCCCC/C=C\CCCCCCCC(N)=O [OLEAMIDE] and reply at your convenience.
high

====

Tested on: HEK-293T
RUN_DESCRIPTION: Incucyte cell viability with HEK293T; also: unitless GR value; below 1 slowed growth and below 0 cell loss
Assay type: toxicity, cell-based
TEST_CONTEXT: human, 6 h, 10 µM, compound concentration 10 uM, replicate number 2, timepoint 6 hours
Would you mind telling me the reported Growth Rate of each entry?
Give bare numbers.

# MOLECULE, Growth Rate
records = [
    ("O=S(=O)(c1ccccc1)N(CC(F)(F)F)c1ccc(C(O)(C(F)(F)F)C(F)(F)F)cc1 [T091317]", 0.77),
    ("CC(=O)O[C@H]1C(=O)[C@@]2(C)[C@H]([C@H](OC(=O)c3ccccc3)[C@]3(O)C[C@H](OC(=O)[C@H](O)[C@@H](NC(=O)c4ccccc4)c4ccccc4)C(C)=C1C3(C)C)[C@]1(OC(C)=O)CO[C@@H]1C[C@@H]2O [PACLITAXEL]", -0.59),
    ("CCCn1c(=O)c2[nH]c(C3CCCC3)nc2n(CCC)c1=O", 0.79),
]

Please give Growth Rate for each item listed below.
1. OCc1cc(C(O)CNCCCCCCOCCCCc2ccccc2)ccc1O (stereo not drawn) [SALMETEROL]
2. CC(C)c1noc(N2CCC(COc3ccc(-c4ccc(S(C)(=O)=O)cc4)nc3)CC2)n1 [GSK-1292263]
3. CCCOc1ccc2[nH]cc(C3=CCNCC3)c2n1.Cl
4. O=C1COc2nccc(-c3ccccc3F)c2CN1Cc1cc(C(F)(F)F)cc(C(F)(F)F)c1

0.28
-0.07
0.51
0.77

Provide Growth Rate for all items below, preserving their order.
1. OCCN1CCN(CCCN2c3ccccc3Sc3ccc(Cl)cc32)CC1 [PERPHENAZINE]
2. Cc1cc(O)c(-c2ccc([C@@H](C)CN(C)C)cc2)c2c1[nH]c(=O)c1sccc12
3. CC(C)N(CCCCOCC(=O)NS(C)(=O)=O)c1cnc(-c2ccccc2)c(-c2ccccc2)n1 [SELEXIPAG]
4. CN[C@@H]1Cc2cccc3[nH]c(=O)n(c23)C1.O=C(O)/C=C\C(=O)O

1. 0.25
2. -0.77
3. 0.76
4. 0.88

====

Tested on: Fibroblast
RUN_DESCRIPTION: Incucyte cell viability with human fibroblast; also: unitless GR value; below 1 slowed growth and below 0 cell loss
Assay type: toxicity, cell-based
TEST_CONTEXT: 6 h, 10 µM, compound concentration 10 uM, replicate number 2, timepoint 6 hours
Exercise: for every item that follows, state its recorded Growth Rate.

Field: Growth Rate. Fill in for each record below.
1. Cc1cc(O)c(-c2ccc([C@@H](C)CN(C)C)cc2)c2c1[nH]c(=O)c1sccc12
2. CC(C)CCC[C@@H](C)[C@H]1CC[C@H]2[C@@H]3[C@H](O)C=C4C[C@@H](O)CC[C@]4(C)[C@H]3CC[C@]12C
3. CCCCNNC(=O)c1ccc(Br)cc1
4. Cc1ccc(Cn2nc(C(=O)N[C@@H]3C(C)(C)[C@@H]4CC[C@@]3(C)C4)cc2-c2ccc(Cl)c(C)c2)cc1
5. O=C(Nc1cc(C(F)(F)F)ccc1N1CCN(Cc2ccccn2)CC1)c1ccc(-c2ccncc2)o1
6. CO[C@H]1CC[C@@H](C(=O)c2ccc3nc4c(cc3c2)CCCO4)CC1

1. -0.66
2. 0.56
3. 0.86
4. 0.01
5. -0.21
6. 0.07

Could you report Growth Rate for every entry in the following list?
1. COc1ccc2cc(S(=O)(=O)N[C@H](CC(=O)N[C@H](Cc3ccc(CN4[C@H](C)CCC[C@@H]4C)cc3)C(=O)N(C)C(C)C)c3ccc4c(c3)OCO4)ccc2c1.Cl
2. CCNC(=O)[C@H]1O[C@@H](n2cnc3c(N)nc(NCCc4ccc(CCC(=O)O)cc4)nc32)[C@H](O)[C@@H]1O.Cl
3. COC(=O)[C@H](CCCNC(=N)N)NC(=O)CCCc1c(-c2ccccc2)[nH]c2c(F)cc(F)cc12.O=C(O)C(F)(F)F
4. NCCc1cn(S(=O)(=O)c2c(Cl)nc3sccn23)c2ccccc12.O=C(O)C(=O)O
5. CN(C)CCn1cc(S(=O)(=O)c2cccc(F)c2)c2cccnc21.Cl.Cl
6. CN(CCN1CCC(OC(=O)Nc2ccccc2-c2ccccc2)CC1)C(=O)c1ccc(CN2CCC(C(N)=O)CC2)cc1
7. COC(=O)Nc1nc2ccc(C(=O)c3cccs3)cc2[nH]1

-0.35
0.47
0.39
-0.79
0.86
0.71
-0.39

For every record below, what is its Growth Rate?
1. CCCCCCCCCCCCCCC[C@@H](O)[C@@H](N)COP(=O)(O)O
2. CO[C@H]1CNC[C@@H](OCC2CCC(F)(F)CC2)[C@@H]1Nc1ncc(-c2cncc(C)c2)c2cc(C)c(=O)[nH]c12
3. C(#Cc1cccc(CN2CCOCC2)c1)CCN1CCCCC1
4. NC(=O)c1cc2c(-c3ccc(C(=O)NCc4ccnc(Cl)c4)s3)cccc2s1
5. COC1(C[S@@+]([O-])c2ccccc2)CCN(CCc2c[nH]c3ccc(F)cc23)CC1
6. CC#C[C@@H](CC(=O)O)c1ccc(OCc2cccc(-c3ccc(C(F)(F)F)cc3)c2)cc1
7. CS(=O)(=O)c1ccc(C(=O)Nc2ccc(Cl)c(-c3ccccn3)c2)c(Cl)c1

0.42
0.24
0.09
-0.97
-0.24
-0.08
0.96

====

Test system: HEK-293T
RUN_DESCRIPTION: Incucyte cell viability with HEK293T; also: unitless GR value; below 1 slowed growth and below 0 cell loss
Assay type: toxicity, cell-based
TEST_CONTEXT: human, 0 h, 10 µM, compound concentration 10 uM, replicate number 2, timepoint 0 hours
*1 amine or outer side, *2 acyl side, *3 side chain or, on linkers, in order; H or OH if unused. Where a SMILES comes first, the peptide text is derived from it. Bridges are numbered along the chain shown (N, C = ends). X1 = O=C(CCC[*:2])[*:1]
VALUE_TYPE: Growth Rate
Give bare numbers.

Sample records with Growth Rate:
# MOLECULE, Growth Rate
rows = [
    ("N[C@@H]1c2cccnc2[C@H](OC(=O)N2CCC(n3c(=O)[nH]c4ncccc43)CC2)CC[C@H]1c1cccc(F)c1F", 0.87),
    ("N[C@@]1(C(=O)O)CO[C@H]2[C@H](C(=O)O)[C@H]21", 0.79),
    ("CC[C@H](C)[C@@H]1NC(=O)[C@H](Cc2ccc(OC)cc2)NC(=O)CCCSC[C@@H](C(=O)N2CCC[C@H]2C(=O)N[C@@H](CC(C)C)C(=O)NCC(N)=O)NC(=O)[C@H](CC(N)=O)NC(=O)[C@H](CCC(N)=O)NC1=O [CARBETOCIN] (Y(Me)IQNCPLG-NH2; linker N-5 via X1)", -0.11),
]

Working through the 3 molecules below one at a time, give Growth Rate for each.
1. CSCC[C@H](NC(=O)[C@H](CC(C)C)NC(=O)CNC(=O)[C@H](Cc1ccccc1)N(C)C(=O)[C@H](Cc1ccccc1)NC(=O)[C@H](CC(=O)O)NC(=O)CCC(=O)O)C(N)=O [SENKTIDE]
2. Cc1cc(NC(=O)NCCN2CCC(O)(Cc3ccccc3)CC2)c2ccccc2n1
3. Cc1cc(C)cc([C@@H]2c3cc(C)ccc3NC(=O)CN2C(=O)c2ccc(Br)s2)c1

-0.03
-1
0.57
